Where do the numbers come from? From paper PMC12951562.

Reported percent of DMSO vehicle control by item:
Target: STAT4 (Homo sapiens)
Construct: made in house; host or cells: HEK293 (transient transfection), unpurified extract
Sequence (Q14765 whole entry): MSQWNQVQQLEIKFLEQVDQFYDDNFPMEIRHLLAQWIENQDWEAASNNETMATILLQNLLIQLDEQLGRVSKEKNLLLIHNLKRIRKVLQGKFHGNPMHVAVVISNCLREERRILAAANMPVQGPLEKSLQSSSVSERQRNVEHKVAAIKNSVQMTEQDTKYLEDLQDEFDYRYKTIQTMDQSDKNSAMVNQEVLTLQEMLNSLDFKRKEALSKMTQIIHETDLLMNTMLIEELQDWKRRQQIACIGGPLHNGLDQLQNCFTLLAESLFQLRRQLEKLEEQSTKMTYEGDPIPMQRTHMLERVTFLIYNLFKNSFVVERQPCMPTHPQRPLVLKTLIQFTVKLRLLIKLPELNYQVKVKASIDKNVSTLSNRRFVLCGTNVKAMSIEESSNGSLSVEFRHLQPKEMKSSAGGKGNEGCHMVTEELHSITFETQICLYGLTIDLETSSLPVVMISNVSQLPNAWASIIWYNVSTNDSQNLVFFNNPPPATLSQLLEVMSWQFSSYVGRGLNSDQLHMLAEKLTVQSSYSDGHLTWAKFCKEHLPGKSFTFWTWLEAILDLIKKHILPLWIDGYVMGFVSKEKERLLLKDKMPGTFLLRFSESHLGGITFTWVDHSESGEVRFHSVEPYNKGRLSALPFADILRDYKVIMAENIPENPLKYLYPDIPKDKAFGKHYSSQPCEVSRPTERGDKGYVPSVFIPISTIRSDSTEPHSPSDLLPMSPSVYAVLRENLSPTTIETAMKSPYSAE
Test: biochemical
Type: binding
Details: primary screen, 10 μM
// units = %; emit number, no label

Which percent of DMSO vehicle control reading was recorded for the compound O=C(CCl)Nc1cccc(CNC(=O)[C@H](Cc2ccc(OP(=O)(O)O)cc2)NC(=O)Cc2ccc(F)cc2)c1 ? 22

What percent of DMSO vehicle control value was documented for this compound, CC(=O)N1CC[C@H]2CC[C@@H](C(=O)N[C@@H](CCC(N)=O)C(=O)NC(c3ccccc3)c3ccccc3)N2C(=O)[C@@H](NC(=O)c2cc3cc(C(F)(F)P(=O)(O)O)ccc3[nH]2)C1 ? 7.3

// percent of DMSO vehicle control lookup, key: O=C(COc1ccc2cc(C(=O)Nc3ccccc3)ccc2c1)NCc1ccc(OP(=O)(O)O)c(OP(=O)(O)O)c1 57.6

Look up percent of DMSO vehicle control: C/C(=C\C(=O)N[C@H](C(=O)N1CCC[C@H]1C(=O)N(c1ccccc1)c1ccc(I)cc1)C(C)(C)C)c1ccc(OP(=O)(O)O)cc1 0.0

###

Measured remaining activity at 10 µM by item
Target: RASA1(SH2dom.N-term.) (Homo sapiens, UniProt P20936)
Construct: SH2dom.N-term. denotes SH2 domain closest to N-terminus of protein; made in house; host or cells: HEK293 (transient transfection), unpurified extract
Sequence (P20936 181-272 limits assumed): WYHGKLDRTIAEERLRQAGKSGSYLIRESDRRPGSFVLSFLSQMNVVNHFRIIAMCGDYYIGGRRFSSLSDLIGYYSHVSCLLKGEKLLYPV
Assay: biochemical
Format: binding
Conditions: read-out: percent of DMSO vehicle control
Non-standard residues stand in square brackets, D forms with d. Residues, ends and D or L forms follow the SMILES beside them. *: point of attachment. pY = N[C@@H](Cc1ccc(OP(=O)(O)O)cc1)C(=O)O; Caffeoyl = O=C(/C=C/c1ccc(O)c(O)c1)*
Express the result in % but write the number alone.

Solved cases below.
molecule | remaining activity at 10 µM (%)
NC(=O)CC[C@H](NC(=O)[C@@H]1CC[C@@H]2CCN(C(=O)CCCCCC#Cc3cccc4c3CN(C3CCC(=O)NC3=O)C4=O)C[C@H](NC(=O)c3cc4cc(C(F)(F)P(=O)(O)O)ccc4[nH]3)C(=O)N21)C(=O)NC(c1ccccc1)c1ccccc1 (stereo partly shown) [SD-36] | 64.7
CC(=O)N1CC[C@H]2CC[C@@H](C(=O)N[C@@H](CCC(N)=O)C(=O)NC(c3ccccc3)c3ccccc3)N2C(=O)[C@@H](NC(=O)c2cc3cc(C(F)(F)P(=O)(O)O)ccc3[nH]2)C1 [SI-109] | 123
CC[C@H](C)[C@H](NC(=O)[C@H](CCC(=O)O)NC(=O)[C@H](CCC(=O)O)NC(=O)[C@H](Cc1ccc(OP(=O)(O)O)cc1)NC(=O)/C=C/c1ccc(O)c(O)c1)C(=O)N[C@@H](CCC(=O)O)C(=O)O [Caffeic acid-pYEEIE] (Caffeoyl-[pY]EEIE-OH) | 0.1

What does the record list as remaining activity at 10 µM for CC(=O)N[C@@H](Cc1ccc(CP(=O)(O)O)cc1)C(=O)NC1(C(=O)N[C@@H](CC(N)=O)C(=O)NCCCc2c(O)ccc3ccccc23)CCCCC1 [CGP78850] ? 47.6

###

Molecular target: CSK (Homo sapiens, UniProt P41240)
Construct: the DNA-tagged SH2 domain concentrations used in this study were <0.1 nM; made in house; host or cells: HEK293 (transient transfection; unpurified extract)
Sequence (P41240 82-171 limits assumed): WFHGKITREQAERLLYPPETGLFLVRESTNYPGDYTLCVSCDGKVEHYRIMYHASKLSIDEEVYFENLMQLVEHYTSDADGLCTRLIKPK
Assay: biochemical
Type: binding
Conditions: dose-response; read-out: KD
observable: Kd
Provide a numeric answer, followed by its unit.

Given the compound C/C(=C\C(=O)N[C@H](C(=O)N1CCC[C@H]1C(=O)N(c1ccccc1)c1ccc(I)cc1)C(C)(C)C)c1ccc(OP(=O)(O)O)cc1 , what is its reported Kd? 3.05 µM

###

Target: LNK (SH2B3) (Homo sapiens, UniProt Q9UQQ2)
Construct: the DNA-tagged SH2 domain concentrations used in this study were <0.1 nM; made in house; host or cells: HEK293 (transient transfection, unpurified extract)
Sequence (Q9UQQ2 364-462 limits assumed): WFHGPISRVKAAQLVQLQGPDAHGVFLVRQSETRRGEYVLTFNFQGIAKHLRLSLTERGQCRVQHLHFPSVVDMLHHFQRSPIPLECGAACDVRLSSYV
Experiment: biochemical
Type: binding
Conditions: primary screen, 10 μM; read-out: percent of DMSO vehicle control
observable: remaining activity at 10 µM (%)
Answer in %, number only, no unit symbol.

Answered cases to consult:
given.smiles | remaining activity at 10 µM, %
O=C(COc1ccc2cc(C(=O)Nc3ccccc3)ccc2c1)NCc1ccc(OP(=O)(O)O)c(OP(=O)(O)O)c1 | 94.8
O=C(CCl)Nc1cccc(CNC(=O)[C@H](Cc2ccc(OP(=O)(O)O)cc2)NC(=O)Cc2ccc(F)cc2)c1 | 17.7
C/C(=C\C(=O)N[C@H](C(=O)N1CCC[C@H]1C(=O)N(c1ccccc1)c1ccc(I)cc1)C(C)(C)C)c1ccc(OP(=O)(O)O)cc1 | 6.9

Item CC(C)(C)[C@H](NC(=O)/C=C/c1ccc(OP(=O)(O)O)cc1)C(=O)N1CCC[C@H]1C(=O)N(c1ccccc1)c1ccc(I)cc1 has what recorded remaining activity at 10 µM? 62

###

// percent of DMSO vehicle control at 10 µM lookup, one value per entry
Biological target: VAV1 (Homo sapiens, UniProt P15498)
Construct: made in house; host or cells: HEK293 (transient transfection), unpurified extract
Sequence (P15498 whole entry): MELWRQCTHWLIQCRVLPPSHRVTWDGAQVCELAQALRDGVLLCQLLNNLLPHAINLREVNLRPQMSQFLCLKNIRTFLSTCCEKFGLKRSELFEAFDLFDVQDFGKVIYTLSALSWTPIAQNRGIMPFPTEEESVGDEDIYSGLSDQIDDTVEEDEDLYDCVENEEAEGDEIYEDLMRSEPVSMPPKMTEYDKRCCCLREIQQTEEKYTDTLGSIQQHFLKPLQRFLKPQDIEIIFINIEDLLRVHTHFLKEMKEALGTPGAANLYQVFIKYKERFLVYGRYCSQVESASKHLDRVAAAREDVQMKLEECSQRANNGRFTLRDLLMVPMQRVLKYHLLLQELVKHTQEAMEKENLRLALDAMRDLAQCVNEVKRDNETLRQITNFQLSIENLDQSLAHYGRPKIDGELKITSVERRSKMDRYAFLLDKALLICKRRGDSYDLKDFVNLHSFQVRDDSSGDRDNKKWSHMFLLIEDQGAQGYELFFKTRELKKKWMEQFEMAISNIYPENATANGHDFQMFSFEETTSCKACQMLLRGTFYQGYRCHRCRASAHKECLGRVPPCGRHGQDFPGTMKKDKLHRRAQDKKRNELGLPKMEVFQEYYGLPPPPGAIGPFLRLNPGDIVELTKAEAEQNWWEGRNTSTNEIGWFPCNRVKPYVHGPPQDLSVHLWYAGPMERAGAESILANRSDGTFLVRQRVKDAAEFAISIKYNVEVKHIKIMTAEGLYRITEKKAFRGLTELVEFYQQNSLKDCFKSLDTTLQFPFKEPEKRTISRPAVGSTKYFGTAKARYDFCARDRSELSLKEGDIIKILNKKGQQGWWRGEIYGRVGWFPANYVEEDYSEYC
Test: biochemical
Assay type: binding
Settings: read-out: percent of DMSO vehicle control
Non-standard residues stand in square brackets, D forms with d. Residues, ends and D or L forms follow the SMILES beside them. *: point of attachment. pY = N[C@@H](Cc1ccc(OP(=O)(O)O)cc1)C(=O)O; Caffeoyl = O=C(/C=C/c1ccc(O)c(O)c1)*
Note: unit % is implicit; provide only the numeric part.

Below, 3 compounds whose answers are already recorded.
compound | percent of DMSO vehicle control at 10 µM, %
CC(=O)N1CC[C@H]2CC[C@@H](C(=O)N[C@@H](CCC(N)=O)C(=O)NC(c3ccccc3)c3ccccc3)N2C(=O)[C@@H](NC(=O)c2cc3cc(C(F)(F)P(=O)(O)O)ccc3[nH]2)C1 [SI-109] | 112
CC(=O)N[C@@H](Cc1ccc(CP(=O)(O)O)cc1)C(=O)NC1(C(=O)N[C@@H](CC(N)=O)C(=O)NCCCc2c(O)ccc3ccccc23)CCCCC1 [CGP78850] | 1.8
NC(=O)CC[C@H](NC(=O)[C@@H]1CC[C@@H]2CCN(C(=O)CCCCCC#Cc3cccc4c3CN(C3CCC(=O)NC3=O)C4=O)C[C@H](NC(=O)c3cc4cc(C(F)(F)P(=O)(O)O)ccc4[nH]3)C(=O)N21)C(=O)NC(c1ccccc1)c1ccccc1 (stereo partly shown) [SD-36] | 116

Find the recorded percent of DMSO vehicle control at 10 µM belonging to CC[C@H](C)[C@H](NC(=O)[C@H](CCC(=O)O)NC(=O)[C@H](CCC(=O)O)NC(=O)[C@H](Cc1ccc(OP(=O)(O)O)cc1)NC(=O)/C=C/c1ccc(O)c(O)c1)C(=O)N[C@@H](CCC(=O)O)C(=O)O [Caffeic acid-pYEEIE] (Caffeoyl-[pY]EEIE-OH) and report it. 1.6

###

Target: GRB7 (Homo sapiens, UniProt Q14451)
Construct: the DNA-tagged SH2 domain concentrations used in this study were <0.1 nM; made in house; host or cells: HEK293 (transient transfection; unpurified extract)
Sequence (Q14451 431-527 limits assumed): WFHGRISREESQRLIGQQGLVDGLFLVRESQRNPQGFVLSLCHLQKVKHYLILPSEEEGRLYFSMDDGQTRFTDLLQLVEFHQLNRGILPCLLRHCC
Experiment: biochemical
Type: binding
Settings: primary screen, 10 μM; read-out: percent of DMSO vehicle control
Below, each entry is listed alongside its reported remaining activity at 10 µM.
Numbers only here, please. The scale is %.

Some solved entries appear below for comparison.
given.smiles | unit.of.measurement | remaining activity at 10 µM
O=C(COc1ccc2cc(C(=O)Nc3ccccc3)ccc2c1)NCc1ccc(OP(=O)(O)O)c(OP(=O)(O)O)c1 | % | 57.9
C/C(=C\C(=O)N[C@H](C(=O)N1CCC[C@H]1C(=O)N(c1ccccc1)c1ccc(I)cc1)C(C)(C)C)c1ccc(OP(=O)(O)O)cc1 | % | 47.7
CC(C)(C)[C@H](NC(=O)/C=C/c1ccc(OP(=O)(O)O)cc1)C(=O)N1CCC[C@H]1C(=O)N(c1ccccc1)c1ccc(I)cc1 | % | 81.2

Alright, here's another compound for you.
Return reported remaining activity at 10 µM; argument: O=C(CCl)Nc1cccc(CNC(=O)[C@H](Cc2ccc(OP(=O)(O)O)cc2)NC(=O)Cc2ccc(F)cc2)c1 71.3

###

Below: a set of entries, each annotated with reported remaining activity at 10 µM.
Molecular target: SLAP2 (Homo sapiens, UniProt Q9H6Q3)
Construct: made in house; host or cells: HEK293 (transient transfection), unpurified extract
Sequence (Q9H6Q3 whole entry): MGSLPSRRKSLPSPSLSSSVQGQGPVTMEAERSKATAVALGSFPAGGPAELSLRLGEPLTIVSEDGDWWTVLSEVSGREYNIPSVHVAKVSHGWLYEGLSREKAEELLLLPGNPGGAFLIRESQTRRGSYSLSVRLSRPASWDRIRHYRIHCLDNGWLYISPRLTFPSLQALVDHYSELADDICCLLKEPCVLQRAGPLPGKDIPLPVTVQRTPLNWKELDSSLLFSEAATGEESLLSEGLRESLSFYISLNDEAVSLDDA
Assay: biochemical
Type: binding
Conditions: primary screen, 10 μM; read-out: percent of DMSO vehicle control
Lab book: enter the figure in %, no units written.

given.smiles | measured.target | reading
O=C(COc1ccc2cc(C(=O)Nc3ccccc3)ccc2c1)NCc1ccc(OP(=O)(O)O)c(OP(=O)(O)O)c1 | SLAP2 (Homo sapiens, UniProt Q9H6Q3) | 90.4
O=C(CCl)Nc1cccc(CNC(=O)[C@H](Cc2ccc(OP(=O)(O)O)cc2)NC(=O)Cc2ccc(F)cc2)c1 | SLAP2 (Homo sapiens, UniProt Q9H6Q3) | 81.6
CC(C)(C)[C@H](NC(=O)/C=C/c1ccc(OP(=O)(O)O)cc1)C(=O)N1CCC[C@H]1C(=O)N(c1ccccc1)c1ccc(I)cc1 | SLAP2 (Homo sapiens, UniProt Q9H6Q3) | 92.1

Lab note: next compound to report on.
Need remaining activity at 10 µM, item C/C(=C\C(=O)N[C@H](C(=O)N1CCC[C@H]1C(=O)N(c1ccccc1)c1ccc(I)cc1)C(C)(C)C)c1ccc(OP(=O)(O)O)cc1 55.8
